Recorded apparent KD of MS2 coat protein, one value per entry.
Test system: MS2 coat protein
Experiment: apparent KD of MS2 coat protein; higher = weaker reporter binding
Measurement Setup: Eterna round: R107; input ligand: theophylline 2 mM
// units = nM; emit number, no label

Sequence Content: GCAUCCUAGUCGGCCGCCACUGGUAUGAACACCUUCACCCGUGUGCACAUGAGGAUCACCCAUGUUAGGACCGGGACUAGGAUGC [SSTryp B #20]
Experimental System: MS2 coat protein
apparent KD of MS2 coat protein, nM: 9.67
//
Sequence Content: GCUAGGUCUACGGCCGCCACUAGACGUGGGUAAAACAUGAGGAUCACCCAUGUGCUACGGGCGAAUAGGACCGGGUAGACCUAGC [SSTB NP+V+V2 #15 +-Same Structure]
Experimental System: MS2 coat protein
apparent KD of MS2 coat protein, nM: 711
//
Sequence Content: UAUCCACAUGAGGAUCACCCAUGUUAGGAAGGAGCGGUGAAUGAACCAGGUAGGUCGCCUAGCUGAGGACCGUCGAUGGAUUCGU [Exclusion - Arginine A (Freestyle 16)]
Experimental System: MS2 coat protein
apparent KD of MS2 coat protein, nM: 28.2

Record GCAUCCUAGUCGGCCGCCACUGACAUGAGGAUCACCCAUGUACAUGAGGAUCACCCAUGUUGUAGCAGGACCGGGACUAGGAUGC [SS Tryp B #17] , field apparent KD of MS2 coat protein: 295

Record AAUAAUAUGAGGAUCACCCAUAUAAAAGAUACCAGAGUGAUGAUCCUCCCUUGGCAGCUUAACGCUGAUUGAUUACAAUCAGCGA , field apparent KD of MS2 coat protein: 234

Record AUGCCUAGUGGAAGGAGCGAGGGUCCUCUCAACAUGAGGAUCACCCAUGUUCUUUUGCACCCUCAGGUAGGUCGCCAUUGGGACA [Veanaris] , field apparent KD of MS2 coat protein: 65.8

###

System: MS2 coat protein
Experiment: apparent KD of MS2 coat protein; designed switch direction (-1 OFF switch, 1 ON switch): -1; higher = weaker reporter binding
Measurement Setup: Eterna round: R98; input ligand: none
Property Label: apparent KD of MS2 coat protein (nM)
// units = nM; emit number, no label

Sequence Content: UUCUGUGCCCAAAGUUUAAGCACAUGAGGAUCACCCAUGUGAAAGGAUAUGUGGCAUGUAAUGUUAUAGAAGGUUCACAAUCAA [Esadi]
Experimental System: MS2 coat protein
apparent KD of MS2 coat protein (nM): 15.8

Sequence Content: UGGUAUAAGGGCAUUACACAUGAGGAUCACCCAUGUACGUUAGAGGAUAUGCAUUCCAGUCGAACGUAGAAGGUUAGAGAAGGG [Morebubblesahh#8abcdefghij]
Experimental System: MS2 coat protein
apparent KD of MS2 coat protein (nM): 113

Sequence Content: CCAUAAAAGAUCCAAAAUUACAACAUGAGGAUCACCCAUGUGCAGGAUAUCGUGAAAGUAAAAUACGAGAAGGGCAAGAACUGC [salish99_ExNG3_r2_004]
Experimental System: MS2 coat protein
apparent KD of MS2 coat protein (nM): 430

Continue with the sequence presented below.
Record UCAUAAUAGAUCCUAUUUAUCUACAUGAGGAUCACCCAUGUGCAGGAUAUGCUAAAAUUAAAAUAGCAGAAGGGCAAUUUCAGC [JR_ExcNG3_Sub013] , field apparent KD of MS2 coat protein: 94.3

###

Tested on: K4 kissing-loop RNA reporter;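 note: bound reporter read as fluorescence of individual clusters on recovered sequencing chips by microscopy, with normalized cluster intensities fitted with a binding model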
Experiment: apparent KD of K4 kissing-loop reporter; higher = weaker reporter binding
Measurement Setup: Eterna round: R107; input ligand: FMN 200 uM
Property Label: apparent KD of K4 kissing-loop reporter (nM)
// units = nM; emit number, no label

As a guide, the following entries are already answered.
Sequence Content: CGCAGUGAUGUUGCUAUUAUUCUUGAUUAACGAGGACCGGUACGGCCGCCACUCGAUUUCUAUCUAAUUUAGUGUUAUGUUGAUU [JR_ExcTryptoA_Sub007]
Property Label: apparent KD of K4 kissing-loop reporter
Unit Label: nM
Reported Measurement: 351
--
Sequence Content: AACUCUCAGGCACCCGAGUGAUGUUCGGGCCGAGGACCGGUACGGCCGCCACUCGGGCCUGAGAGAGGUUAUCAAAGAUAGCCAA [Omei KL Tryp A SS A v1]
Property Label: apparent KD of K4 kissing-loop reporter
Unit Label: nM
Reported Measurement: 247

Continue with the sequence presented below.
Record CGAGAAUGUCGACAGUCAUCGGUCCAUGCACGAGGACCGGUACGGCCGCCACUCGAGCGUGGCAGUGAUGUUGCCAGCGCACUAA [KL-XTryp-A14] , field apparent KD of K4 kissing-loop reporter: 99.6

###

Tested on: MS2 coat protein
Experiment: apparent KD of MS2 coat protein, switch ON state; designed switch direction (-1 OFF switch, 1 ON switch): -1; higher = weaker reporter binding
Measurement Setup: FMN input: 0 or 200 uM; Eterna round: R93 (includes R88 designs)
Property Label: apparent KD of MS2 coat protein (nM)
// units = nM; emit number, no label

As a guide, the following entries are already answered.
Sequence Content: AGUUGGCGAGGAUAUACAUGAGGAUCACCCAUGUGAAAGAAAAAAGUGAGAAAGAAAAGUAGAAGGCGCUGACA [73%, Moding Norbert Elias, 2]
apparent KD of MS2 coat protein, nM: 54.7
--
Sequence Content: AACAAGUAAGGAUAUGCUGCUCGUCACAAAAGUGAUGAGUAGCAGAAGGUACAUGAGGAUCACCCAUGUAAAGA [JL eternac mod 16]
apparent KD of MS2 coat protein, nM: 28
--
Sequence Content: AAAGGACGAGGAUAUACAUGAGGAUCACCCAUGUGUAAAACGUAAUAAAAGAACUUAUGUAGAAGGCGUCCAAA [Mat - Exclusion 3 - Eli mod - D96]
apparent KD of MS2 coat protein, nM: 64.7
--
Sequence Content: AAAAAGAGAGGAUAUACAUGAGGAUCACCCAUGUGAAAGACGAAAAAAAGUCAAAAAAGUAGAAGGCUCAAAAA [65%, Moding Exclusion3-cac2, 15]
apparent KD of MS2 coat protein, nM: 23.8
--
Sequence Content: AAGAAACAUGAGGAUCACCCAUGUGAGGAUAUAGAAGAAAGAAAGAAAGAAAGAAGAACUAGAAGGCACAAAGG [Aemilius Rectus]
apparent KD of MS2 coat protein, nM: 33.1

I looked up AGCUAGUCAGGAUAUACGAGAAAGAAAGAAGAAGUGAAGGGACAUGAGGAUCACCCAUGUAGAAGGGACUAGCA [Diamond 27] and its apparent KD of MS2 coat protein for MS2 coat protein was 51.9

###

Recorded apparent KD of MS2 coat protein, one value per entry.
Tested on: MS2 coat protein
Experiment: apparent KD of MS2 coat protein; designed switch direction (-1 OFF switch, 1 ON switch): -1; higher = weaker reporter binding
Measurement Setup: input ligand: FMN 200 uM
// units = nM; emit number, no label

As a guide, the following entries are already answered.
Sequence Content: UCAAGUAUGUAGGAUAUCGAUGUCUACGGACAUCGAGAAGGACGUACAUGAGGAUCACCCAUGUAACUUGCAUG [Exclusion 6 - B - 10:d] (Eterna round: R96, puzzle: Exclusion 6)
apparent KD of MS2 coat protein / nM: 238
//
Sequence Content: AACCGCAUAGGAUAUCGAGCAGAGGACUUGAGGAUCACCCAAGUCCUUGAGUUCUUUGUCCGAGAAGGAUGAACAU [Ususrace] (Eterna round: R97, puzzle: Exclusion 5)
apparent KD of MS2 coat protein / nM: 13.7
//
Sequence Content: AGUCGUAGACAGGAUAUGCGGCUAAUAAAUAAAGCAGAAGGGUCUACUUGAGGAUCACCCAAGUGGGCGGUUUA [jl-ex6-4.20 ViennaUCT mod] (Eterna round: R97, puzzle: Exclusion 6)
apparent KD of MS2 coat protein / nM: 96.3

Record UUUUUUUUGCUGGUUUUUUACAUGAGGAUCACCCAUGUCCUCUGCUUGUCUUGUGUUGUGCUGGUUUCUGGUGCGGC [Revision to "-18.4 -40.2 kcal, A 8%"by Sellena] (Eterna round: R97, puzzle: Sensor, turn-off variant 1) , field apparent KD of MS2 coat protein: 428

Record UUGUAGUCAGGAUAUACAUGAGGAUCACCCAUGUAAAAUUUUAAUUUAAUUUGAAGGUGUAGAAGGGACCAGUU [Ex3 #24] (Eterna round: R97, puzzle: Exclusion 3) , field apparent KD of MS2 coat protein: 36.5

Record UAUUAGUAAGGAUAUGAGGCGUAGUACGAAAGUACUACGUCUCAGAAGGUACAUGAGGAUCACCCAUGUUCAUU [Mod of Fisker 4 - Jieux - Exclusion 4] (Eterna round: R97, puzzle: Exclusion 4) , field apparent KD of MS2 coat protein: 19.9

Record AGGUGUAGAGGAUAUCGAGUCCUUUACAUGAGGAUCACCCAUGUCCUGGGCACCCAGGACCGAGAAGGCUACACCA [Omei Ex5 D32] (Eterna round: R97, puzzle: Exclusion 5) , field apparent KD of MS2 coat protein: 353

Record UCAGCUUGUGUCAGGAUAUCCAGUCCGACGGGAGAGGAGAAGGGACAUGAGGAUCACCCAUGUAGGCGCCCUAC [Soerrecege] (Eterna round: R97, puzzle: Brourd's mod of Exclusion 4) , field apparent KD of MS2 coat protein: 63.8

Record UCCUUACUGGUCAGGAUAUACAGUCGCGGGUGGGUGUAGAAGGGACAUGAGGAUCACCCAUGUACGUUACAUCC [alecazam54h] (Eterna round: R97, puzzle: Brourd's mod of Exclusion 4) , field apparent KD of MS2 coat protein: 19.7

Record AGUUCACAUGAGGAUCACCCAUGUGAGGAUAUGGAUUCGCUGGCCGUAGCCAGUGGAUCCAGAAGGCGCAUGAU [JL-ex1-4.14] (Eterna round: R97, puzzle: Exclusion 1) , field apparent KD of MS2 coat protein: 36.9

Record AGAGAGUCAGGAUAUGACGAAGAGAACAUGAGGAUCACCCAUGUAGCUUCGUAAUCAUCGUCAGAAGGGACGAACU [JR_Ex5_Sub090] (Eterna round: R97, puzzle: Exclusion 5) , field apparent KD of MS2 coat protein: 14.7

Record AUGAUGUUAGGAUAUCAUUGCCGGGUUUGAAAACACGGGAUUGAGAAGGAACAUGAGGAUCACCCAUGUGCCUC [EX4 C.9] (Eterna round: R97, puzzle: Exclusion 4) , field apparent KD of MS2 coat protein: 118

Record UCUGGAGCAGGAUAUAUAUGACGUGCUUCGGCACGAAGGUCACAUGAGGAUCACCCAUGUAGAAGGGCUCCAGA [E2/9-D2] (Eterna round: R97, puzzle: Exclusion 2) , field apparent KD of MS2 coat protein: 344

Record GUUUGACAUGAGGAUCACCCAUGUAAGGAUAUACGAGUAGCUACUAGGUAGUUAGUAUGUAGAAGGUACGUGUU [EX1 #65] (Eterna round: R97, puzzle: Exclusion 1) , field apparent KD of MS2 coat protein: 50.4

Record UAUGGUUAAGUCAGGAUAUACUAAUAGAAAUCUGAGUAGAAGGGACAUGAGGAUCACCCAUGUAUGGUAGUGUU [Ex4 #58] (Eterna round: R97, puzzle: Brourd's mod of Exclusion 4) , field apparent KD of MS2 coat protein: 77.1

Record UAUUAGCAAGCGAGAUCCCACAUGAGGAUCACCCAUGUAGCUCGUCUUAUAAAGGUUUCGACGAAAACGUCGAGACC [Eli 91 v27] (Eterna round: R97, puzzle: Sensor, turn-off variant 1) , field apparent KD of MS2 coat protein: 17.5

Record CUGUUUUUCGCAGGAUAUGCUCCUCCAUUAUUUGCAGAAGGGCGUUAAACAUGAGGAUCACCCAUGUAUGGUAAUGACUAUUUC [JR_ExcNG1_Sub065] (Eterna round: R96, puzzle: Exclusion NG 1) , field apparent KD of MS2 coat protein: 125

Record ACGGUGGUCCGAGAACAUGAGGAUCACCCAUGUGACAAAACCAAGGAUAUAGAAGGACCGCCCGACUAGAAGGUGGAAAGAAAA [Aresonen] (Eterna round: R96, puzzle: Exclusion NG 3) , field apparent KD of MS2 coat protein: 101

Record ACAUGAGGAUCACCCAUGUUCGGCUGGUCCGUCUCGGCUGUCGAGGAUAUAGCUCGGUGUCCGCGCUAGAAGGCGGGAGCUGGC [Aenatbe mod 66] (Eterna round: R96, puzzle: Exclusion NG 3) , field apparent KD of MS2 coat protein: 106
